Target: 5-hydroxytryptamine receptor 1A (Rattus norvegicus, UniProt P19327)
measured.parameter: pKi
// field semantics: pKi = negative decimal log of concentration (mol/L)

Some solved cases for reference:
{"compound": "O=C(NCCN1CCN(C2CCCc3ccccc32)CC1)c1ccccc1 (single isomer, unassigned; (-))", "number": 9.40}
{"compound": "O=C(NCCN1CCN(C2CCCc3ccccc32)CC1)c1ccc(F)cc1 (single isomer, unassigned; (+))", "number": 7.30}
{"compound": "O=C(CCCN1CCN(C2CCCc3ccccc32)CC1)c1ccc(F)cc1 (stereo not drawn)", "number": 7.77}
{"compound": "O=C(NCCN1CCN(C2CCCc3ccccc32)CC1)c1ccc(Cl)cc1 (stereo in doubt; (+)-34)", "number": 6.68}
{"compound": "O=C(NCCN1CCN(C2CCCc3ccccc32)CC1)c1ccc(Cl)cc1 (stereo in doubt; 34)", "number": 8.00}

Q: Return pKi measured with 5-hydroxytryptamine receptor 1A (Rattus norvegicus, UniProt P19327) given this compound: O=C(NCCN1CCN(C2CCCc3ccccc32)CC1)c1ccc(F)cc1 (stereo in doubt; 33)
Result: 8.82

Q: Return pKi measured with 5-hydroxytryptamine receptor 1A (Rattus norvegicus, UniProt P19327) given this compound: O=C(NCCN1CCN(C2CCCc3ccccc32)CC1)c1ccccc1 (stereo in doubt; 32)
Result: 8.96

Q: Return pKi measured with 5-hydroxytryptamine receptor 1A (Rattus norvegicus, UniProt P19327) given this compound: O=C(NCCN1CCN(C2CCCc3ccccc32)CC1)c1ccc(Cl)cc1 (stereo in doubt; (-)-34)
Result: 8.40

---

Target: D(1A) dopamine receptor (Mus musculus, UniProt Q61616)
Sequence (Q61616 whole entry): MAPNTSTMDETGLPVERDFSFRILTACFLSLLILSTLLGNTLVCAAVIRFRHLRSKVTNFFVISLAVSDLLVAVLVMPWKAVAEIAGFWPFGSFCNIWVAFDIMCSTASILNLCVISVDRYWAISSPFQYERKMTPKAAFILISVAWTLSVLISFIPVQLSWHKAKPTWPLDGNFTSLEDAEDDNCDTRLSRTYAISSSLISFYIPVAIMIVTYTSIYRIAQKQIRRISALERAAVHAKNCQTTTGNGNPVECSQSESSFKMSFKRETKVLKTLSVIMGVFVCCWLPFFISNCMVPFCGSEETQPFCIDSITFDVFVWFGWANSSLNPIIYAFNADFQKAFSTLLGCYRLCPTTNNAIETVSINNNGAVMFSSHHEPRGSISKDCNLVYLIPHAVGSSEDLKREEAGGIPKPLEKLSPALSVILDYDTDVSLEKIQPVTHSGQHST
Assay: Binding affinity against Dopamine receptor D1
Consider the following molecules and their measured Ki readings.

{"molecule": "O=C1CC2(CCCC2)CC(=O)N1CCCCN1CCN(c2ncccn2)CC1", "Ki": "> 1000 nM"}

Next molecule, please.
Q: What does the data say about its Ki? Entry: CCCN(CCC)C1CCc2cccc(O)c2C1 (configuration not stated)
Result: > 1000 nM

---

Molecular target: Alpha-1A adrenergic receptor (Bos taurus)
Sequence (P18130 whole entry): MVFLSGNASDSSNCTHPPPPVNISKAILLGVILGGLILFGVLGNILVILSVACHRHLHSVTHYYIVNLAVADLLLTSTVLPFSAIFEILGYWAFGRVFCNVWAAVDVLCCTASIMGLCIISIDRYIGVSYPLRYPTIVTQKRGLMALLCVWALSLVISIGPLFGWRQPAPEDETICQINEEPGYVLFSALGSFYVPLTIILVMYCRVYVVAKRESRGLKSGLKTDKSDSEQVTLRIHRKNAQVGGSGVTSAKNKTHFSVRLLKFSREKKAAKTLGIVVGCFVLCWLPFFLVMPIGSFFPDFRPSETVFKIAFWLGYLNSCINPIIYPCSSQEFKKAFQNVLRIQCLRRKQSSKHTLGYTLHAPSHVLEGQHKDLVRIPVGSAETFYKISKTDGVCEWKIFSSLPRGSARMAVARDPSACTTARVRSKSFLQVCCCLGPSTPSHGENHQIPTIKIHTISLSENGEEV
Test: Binding affinity of compound towards Alpha-1 adrenergic receptor using [3H]prazosin 0.5 nM ligand in frontal cortex calf was determined
Assay type: tissue-based
measured.parameter: pKi
// field semantics: pKi = negative decimal log of concentration (mol/L)

Q: What does the data say about its pKi? Entry: COc1cccc(OC)c1OCCNCC1COc2ccccc2O1 (stereo unspecified)
Result: 9.22

---

Molecular target: Sigma non-opioid intracellular receptor 1 (Homo sapiens, UniProt Q99720)
Sequence (Q99720 whole entry): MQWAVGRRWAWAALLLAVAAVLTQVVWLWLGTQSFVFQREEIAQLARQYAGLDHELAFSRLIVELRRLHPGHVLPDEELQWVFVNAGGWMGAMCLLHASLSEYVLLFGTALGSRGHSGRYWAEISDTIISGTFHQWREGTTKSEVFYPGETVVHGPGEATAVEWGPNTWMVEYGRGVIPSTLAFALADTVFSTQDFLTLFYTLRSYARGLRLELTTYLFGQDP
Test: Binding affinity against sigma receptor
pKi: −log10 of the molar value.
measured.parameter: pKi

Q: What does the data say about its pKi? Entry: CCCN(CCC)C1CCc2cccc(O)c2C1 (stereo unspecified) [8-OH-DPAT]
Result: < 5.61

---

Biological target: D(1A) dopamine receptor (Bos taurus)
Sequence (Q95136 whole entry): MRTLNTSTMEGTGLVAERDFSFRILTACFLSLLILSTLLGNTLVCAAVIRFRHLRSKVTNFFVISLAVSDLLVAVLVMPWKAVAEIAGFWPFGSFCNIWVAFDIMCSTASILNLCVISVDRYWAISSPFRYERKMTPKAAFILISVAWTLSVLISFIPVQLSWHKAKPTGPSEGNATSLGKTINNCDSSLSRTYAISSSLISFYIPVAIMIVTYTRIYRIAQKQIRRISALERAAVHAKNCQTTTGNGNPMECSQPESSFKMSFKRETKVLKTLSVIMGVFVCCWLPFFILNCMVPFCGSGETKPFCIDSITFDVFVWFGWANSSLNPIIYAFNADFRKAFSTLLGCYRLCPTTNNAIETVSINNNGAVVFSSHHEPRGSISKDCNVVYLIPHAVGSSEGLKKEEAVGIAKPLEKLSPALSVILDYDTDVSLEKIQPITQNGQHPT
Experiment: Inhibition of [3H]SCH-23390 binding to Dopamine receptor D1 of bovine striatum
Format: tissue-based
Rule for this label: True means Ki is less than 10 µM; False means Ki is at least 10 µM.

// below: answered compounds
{"compound": "O=C(NCCN1CCN(C2CCCc3ccccc32)CC1)c1ccc(F)cc1 (stereo in doubt; 33)", "group.label": "False"}
{"compound": "O=C(NCCN1CCN(C2CCCc3ccccc32)CC1)c1ccc(Cl)cc1 (stereo in doubt; (+)-34)", "group.label": "False"}
{"compound": "O=C(NCCN1CCN(C2CCCc3ccccc32)CC1)c1ccc(F)cc1 (single isomer, unassigned; (-))", "group.label": "True"}
{"compound": "CCCN(CCC)C1CCc2cccc(O)c2C1 (stereo not given)", "group.label": "False"}

Now consider a different compound.
Q: Is it true that Ki reported for O=C1CC2(CCCC2)CC(=O)N1CCCCN1CCN(c2ncccn2)CC1 is less than 10 µM?
Result: True

---

Target: 5-hydroxytryptamine receptor 1A (Rattus norvegicus)
Sequence (whole entry): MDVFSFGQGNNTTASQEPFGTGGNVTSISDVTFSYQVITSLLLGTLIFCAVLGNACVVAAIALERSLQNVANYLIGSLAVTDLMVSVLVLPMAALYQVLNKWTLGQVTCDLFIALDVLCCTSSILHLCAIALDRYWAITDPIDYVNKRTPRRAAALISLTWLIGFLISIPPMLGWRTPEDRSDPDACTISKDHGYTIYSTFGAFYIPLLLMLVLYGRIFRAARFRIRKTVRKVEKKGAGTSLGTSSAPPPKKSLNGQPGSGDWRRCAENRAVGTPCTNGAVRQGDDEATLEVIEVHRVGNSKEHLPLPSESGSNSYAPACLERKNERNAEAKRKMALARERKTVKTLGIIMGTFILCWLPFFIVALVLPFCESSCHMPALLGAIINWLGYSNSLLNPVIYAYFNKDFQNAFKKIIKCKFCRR
Assay: Inhibition of [3H]8-OH-DPAT binding to 5-hydroxytryptamine 1A receptor in rat hippocampal membranes at 10e-7 M
Assay type: cell membranes
Conditions: Hippocampus, Membrane
Give 1 when the value for inhibition is at least 70%. Give 0 when it is less.

// below: answered molecules
{"molecule": "O=C(NCCN1CCN(C2CCCc3ccccc32)CC1)c1ccc(F)cc1 (stereo in doubt; 33)", "system.under.test": "5-hydroxytryptamine receptor 1A (Rattus norvegicus)", "group.label": 1}
{"molecule": "O=C(NCCN1CCN(C2CCCCc3ccccc32)CC1)c1ccccc1 (stereo not drawn)", "system.under.test": "5-hydroxytryptamine receptor 1A (Rattus norvegicus)", "group.label": 0}
{"molecule": "O=C(NCCN1CCN(C2CCCCc3ccccc32)CC1)c1ccc(F)cc1 (stereo not drawn)", "system.under.test": "5-hydroxytryptamine receptor 1A (Rattus norvegicus)", "group.label": 0}
{"molecule": "COc1ccc(C(=O)NCCN2CCN(C3CCCc4ccccc43)CC2)cc1 (stereo not drawn)", "system.under.test": "5-hydroxytryptamine receptor 1A (Rattus norvegicus)", "group.label": 0}
{"molecule": "COc1ccc(C(=O)NCCN2CCN(C3CCc4ccccc43)CC2)cc1 (stereo not drawn)", "system.under.test": "5-hydroxytryptamine receptor 1A (Rattus norvegicus)", "group.label": 0}

Q: Identify whether the reported inhibition of the following molecule is 70% or greater: O=C(NCCN1CCN(C2CCCc3ccccc32)CC1)c1ccccc1 (stereo in doubt; 32)
Result: 1

---

The molecules below have reported Ki for 5-hydroxytryptamine receptor 1D (Sus scrofa, UniProt P79400).
Write the value in µM as a bare number.

{"molecule": "O=C(NCCN1CCN(C2CCCc3ccccc32)CC1)c1ccc(F)cc1 (stereo in doubt; 33)", "number": 9.77}

Next molecule, please.
Q: What does the data say about its Ki? Entry: O=C(NCCN1CCN(C2CCCc3ccccc32)CC1)c1ccccc1 (stereo in doubt; 32)
Result: 6.92

---

Target: Sigma non-opioid intracellular receptor 1 (Rattus norvegicus, UniProt Q9R0C9)
Sequence (Q9R0C9 whole entry): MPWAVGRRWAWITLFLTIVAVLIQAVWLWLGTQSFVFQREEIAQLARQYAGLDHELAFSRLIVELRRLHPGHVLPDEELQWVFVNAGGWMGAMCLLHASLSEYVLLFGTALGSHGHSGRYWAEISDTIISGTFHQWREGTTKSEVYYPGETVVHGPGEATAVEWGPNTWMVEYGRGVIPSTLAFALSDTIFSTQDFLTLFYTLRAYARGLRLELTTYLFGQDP
Assay: Inhibition of [3H]DTG binding to sigma receptor in rat hippocampus
pKi: −log10 of the molar value.
Give 1 when the value for pKi is at least 7. Give 0 when it is less.

// below: answered molecules
{"molecule": "CCCN(CCC)C1CCc2cccc(O)c2C1 (stereo not drawn) [8-OH-DPAT]", "group.label": 0}
{"molecule": "O=C(NCCN1CCN(C2CCCc3ccccc32)CC1)c1ccc(F)cc1 (stereo in doubt; 33)", "group.label": 0}
{"molecule": "O=C(CCCN1CCN(C2CCCc3ccccc32)CC1)c1ccc(F)cc1 (stereo not drawn)", "group.label": 1}
{"molecule": "O=C(NCCN1CCN(C2CCCc3ccccc32)CC1)c1ccc(Cl)cc1 (stereo in doubt; (-)-34)", "group.label": 0}
{"molecule": "O=C(NCCN1CCN(C2CCCc3ccccc32)CC1)c1ccc(Cl)cc1 (stereo in doubt; (+)-34)", "group.label": 0}

Now consider a different molecule.
Q: Identify whether the reported pKi of the following molecule is 7 or greater: O=C(NCCN1CCN(C2CCCc3ccccc32)CC1)c1ccc(F)cc1 (single isomer, unassigned; (+))
Result: 0

---

Target: 5-hydroxytryptamine receptor 1A (Rattus norvegicus) (UniProt P19327)
Experiment: Inhibition of [3H]8-OH-DPAT binding to 5-hydroxytryptamine 1A receptor in rat hippocampal membranes at 10e-7 M
Type: cell membranes
Conditions: Hippocampus, Membrane
measured.parameter: inhibition (%)
Write the value in % as a bare number.

{"compound": "O=C(NCCCN1CCN(C2CCCc3ccccc32)CC1)c1ccccc1 (stereo unspecified)", "measured.parameter": "inhibition", "unit": "%", "number": 39}
{"compound": "O=C(NCCN1CCN(C2CCCc3ccccc32)CC1)c1ccc(Cl)cc1 (stereo in doubt; 34)", "measured.parameter": "inhibition", "unit": "%", "number": 86}
{"compound": "O=C(CCCN1CCN(C2CCCc3ccccc32)CC1)c1ccc(F)cc1 (stereo unspecified)", "measured.parameter": "inhibition", "unit": "%", "number": 37}

Q: What does the data say about its inhibition? Entry: COc1ccc(C(=O)NCCN2CCN(C3CCCCc4ccccc43)CC2)cc1 (stereo unspecified)
Result: 11

Q: What does the data say about its inhibition? Entry: Cc1ccc(C(=O)NCCN2CCN(C3CCCc4ccccc43)CC2)cc1 (stereo unspecified)
Result: 42

Q: What does the data say about its inhibition? Entry: Cc1ccc(C(=O)NCCN2CCN(C3CCCCc4ccccc43)CC2)cc1 (stereo unspecified)
Result: 0
